List of inhibition at 10 µM values.
target: GCK (Homo sapiens (Human), UniProt Q12851); experiment: KiNativ assay; type: binding; details: H929 live cell, read-out: inhibition (10 μM)
Sequence (Q12851 whole entry): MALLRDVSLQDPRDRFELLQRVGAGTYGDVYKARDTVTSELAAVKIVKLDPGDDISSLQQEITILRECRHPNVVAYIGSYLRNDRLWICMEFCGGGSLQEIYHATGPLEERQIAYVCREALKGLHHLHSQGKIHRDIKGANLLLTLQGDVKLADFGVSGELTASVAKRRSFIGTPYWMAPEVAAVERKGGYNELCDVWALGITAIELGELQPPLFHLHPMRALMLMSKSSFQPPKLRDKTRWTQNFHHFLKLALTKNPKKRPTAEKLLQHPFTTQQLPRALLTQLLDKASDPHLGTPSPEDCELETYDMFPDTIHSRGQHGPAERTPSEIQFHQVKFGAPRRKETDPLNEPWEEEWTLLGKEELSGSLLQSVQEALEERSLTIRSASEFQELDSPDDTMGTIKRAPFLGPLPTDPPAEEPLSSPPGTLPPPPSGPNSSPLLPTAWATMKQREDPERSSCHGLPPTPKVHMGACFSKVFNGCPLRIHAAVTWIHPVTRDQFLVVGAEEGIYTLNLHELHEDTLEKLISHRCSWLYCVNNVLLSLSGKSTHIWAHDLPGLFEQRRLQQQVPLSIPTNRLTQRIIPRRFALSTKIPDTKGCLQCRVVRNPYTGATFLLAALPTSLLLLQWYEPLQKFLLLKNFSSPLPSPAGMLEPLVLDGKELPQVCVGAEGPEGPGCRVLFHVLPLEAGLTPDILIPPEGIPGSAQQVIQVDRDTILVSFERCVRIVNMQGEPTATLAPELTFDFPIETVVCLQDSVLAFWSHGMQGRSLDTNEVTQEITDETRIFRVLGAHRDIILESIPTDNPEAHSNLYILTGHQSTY
Please state the figure in %; there is no need to write the unit.

Known inhibition at 10 µM results, listed for orientation:
Endpoint output: inhibition at 10 µM of Nc1ncc(-c2cccc3ncsc23)cc1-c1ccc2c(c1)CCNC2=O . Value? 77.3

Endpoint output: inhibition at 10 µM of CN(C1CC1)S(=O)(=O)c1ccc(-c2cnc(N)c(-c3ccc4c(c3)CCNC4=O)c2)c(F)c1 . Value? 84.7

Endpoint output: inhibition at 10 µM of Nc1ncc(-c2cccc([N+](=O)[O-])c2F)cc1-c1ccc2c(c1)CCNC2=O . Value? 91.5

Endpoint output: inhibition at 10 µM of COc1cc(NS(=O)(=O)C2CC2)ccc1-c1cnc(N)c(-c2ccc3c(c2)CCNC3=O)c1 . Value? 95.2

Endpoint output: inhibition at 10 µM of Nc1ncc(-c2ccc(NS(=O)(=O)C3CC3)cc2F)cc1-c1ccc2c(c1)CCNC2=O . Value? 93.9

Here is another molecule to look at.
Endpoint output: inhibition at 10 µM of Nc1ncc(-c2ccc(NS(=O)(=O)C3CC3)cc2OC2CCCCC2)cc1-c1ccc2c(c1)CCNC2=O . Value? 92.5
